System: HCT-15 colon
procedure-text: NCI tumour cell line growth inhibition, 48 h
Square brackets hold non-standard residues; d marks the D form. Peptide text beside a SMILES is read from it. * marks the point of attachment. Boc = CC(C)(C)OC(=O)*; OBn = c1ccc(CO*)cc1
Catalogue of TGI readings, one per entry.

Completed entries (count: 3):
compound: O=C1CC[C@H](NC(=O)Cc2ccccc2)C(=O)N1
target-system: HCT-15 colon
readout-name: TGI
observed-value: > 1250 µM
--
compound: C[C@@H](NC(=O)CNC(=O)OC(C)(C)C)C(=O)N[C@@H](Cc1ccccc1)C(=O)OCc1ccccc1 (Boc-Gly-[dA]-Phe-OBn)
target-system: HCT-15 colon
readout-name: TGI
observed-value: > 100 µM
--
compound: Nc1n[nH]c2cccc(C#Cc3cccc(NC(=O)c4ccc(N5CCOCC5)c(C(F)(F)F)c4)c3)c12
target-system: HCT-15 colon
readout-name: TGI
observed-value: 6.44 µM

Input line: // query TGI value for entry O=C1/C=C/[C@@H](O)[C@@H]2C[C@@H](O)C[C@H]2/C=C/CCC[C@H](CCOCc2ccccc2)O1
Output line: 12.9 µM

* * *

Tested on: SNB-19 CNS
procedure-text: NCI tumour cell line growth inhibition, 48 h
readout-name: TGI

Below, each entry is followed by its recorded TGI result.
compound: Cc1ccc(-n2c(O)c(C=N)c(=O)n(-c3ccc(C)cc3)c2=O)cc1
target-system: SNB-19 CNS
TGI: > 100 µM
//
compound: COC(=O)C(Cc1c[nH]c2ccccc12)NP(=O)(O)OCC1OC(n2ccc(N)nc2=O)C(O)C1O (centres undefined)
target-system: SNB-19 CNS
TGI: > 100 µM
//
compound: O=C1C[C@@H](Sc2ccccc2)C2(OCCO2)C2ON3CCCC[C@H]3[C@H]12 (some centres undefined)
target-system: SNB-19 CNS
TGI: 32.1 µM
//
compound: C[C@H](C(=O)C12CC3CC(CC(C3)C1)C2)[C@H](O)c1ccccc1
target-system: SNB-19 CNS
TGI: > 100 µM
//
compound: O=c1cc(-c2ccc3ccccc3c2)[nH]c2ncc(Cl)cc12
target-system: SNB-19 CNS
TGI: 51.2 µM

Input line: Observed TGI on SNB-19 CNS for C[C@]12CC[C@@H]3c4ccc(O)cc4CC[C@H]3[C@@H]1CC[C@@H]2NS(=O)(=O)c1ccc(Cl)cc1 , please.
Output line: 24 µM

Input line: GET /values?readout=TGI&system=SNB-19 CNS&item= CCOc1ccc([Se][Se]c2ccc(OCC)cc2)cc1
Output line: > 100 µM

Input line: Record Clc1ccc(COc2ccccc2/C=N/c2c(-c3ccco3)nc3ccccn23)c(Cl)c1 : what is its TGI with SNB-19 CNS?
Output line: > 100 µM

Input line: What is its TGI for SNB-19 CNS? Entry: O=C(C1OC1c1ccc(F)cc1)C12CC3CC(CC(C3)C1)C2 (centres undefined)
Output line: > 100 µM

Input line: Fill in the recorded TGI for this compound, with SNB-19 CNS as test system: CCOC(=O)C1OC(=O)CC1C1(C(=O)OCC)C=CC(=O)O1 (centres undefined)
Output line: > 100 µM

Input line: What TGI appears in the records for this compound with SNB-19 CNS? Cc1cc(C(=O)NCCN(C)C)c2nc3ccccc3cc2c1
Output line: 6.89 µM

Input line: GET /values?readout=TGI&system=SNB-19 CNS&item= O=c1[nH]c(=O)n(COCCOCc2ccccc2)cc1Nc1ccccc1
Output line: > 100 µM

Input line: Return TGI measured with SNB-19 CNS given this compound: Nc1nccc2c1ncn2[C@H]1C[C@H](O)[C@@H](CO)O1
Output line: > 100 µM

Input line: Look up TGI with SNB-19 CNS for this compound: Cc1cc(S(=O)(=O)n2cc[nH]c2=O)c(SCCCN(C)C)cc1Cl
Output line: > 100 µM
